Here, each record is paired with measured Visual classification at the end of the tempering step (points system) data.
- Experiment notes: Drying behaviour of crystallisates in dependence on residual moisture and product purity (tempering in sealed vials, visual points classification)
- Type: physicochemical
- Set-up: key: 5 points=sample unchanged; 4 points=sample compacted/started to dissolve; 3 points=sample visibly started to dissolve; 2 points=sample cloudy highly viscous solution; 1 point=sample dissolved to clear solution
- Experimental setup: Temperature 60 °C, test duration 24 h, sealed vial, shaken
Recorded endpoint: Visual classification at the end of the tempering step (points system)

{"Compound": "O=P(O)(O)CN(CCN(CP(=O)(O)O)CP(=O)(O)O)CCN(CP(=O)(O)O)CP(=O)(O)O [unwashed quality 40 [% by mass] residual moisture]", "Readout number": 3}
{"Compound": "O=P(O)(O)CN(CCN(CP(=O)(O)O)CP(=O)(O)O)CCN(CP(=O)(O)O)CP(=O)(O)O [unwashed quality 47 [% by mass] residual moisture]", "Readout number": 3}
{"Compound": "O=P(O)(O)CN(CCN(CP(=O)(O)O)CP(=O)(O)O)CCN(CP(=O)(O)O)CP(=O)(O)O [washed quality 11 [% by mass] residual moisture]", "Readout number": 5}

* * *

- Experiment notes: Determination of the hygroscopicity (gravimetric water absorption in desiccator at constant humidity)
- Type: physicochemical
- Experimental setup: 22±2° C., relative humidity of 55%, determined daily over 12 days
- Protocol: In order to determine the hygroscopicity, solid samples were stored in 25 ml glass beakers in a desiccator under constant humidity. […] The water absorption of the samples was determined gravimetrically once daily over a period of 12 days as the difference in mass (see FIG. 14). Two spray-dried powders were tested as comparison with crystallisate samples of the crystallisates of the α, β and γ crystal modification. […]
Here, each record is paired with measured Relative water absorption data.

{"Molecule": "O=P(O)(O)CN(CCN(CP(=O)(O)O)CP(=O)(O)O)CCN(CP(=O)(O)O)CP(=O)(O)O [Crystal form γ, purified quality]", "Relative water absorption [% by mass/day]": 0.003}
{"Molecule": "O=P(O)(O)CN(CCN(CP(=O)(O)O)CP(=O)(O)O)CCN(CP(=O)(O)O)CP(=O)(O)O [Crystal form β, purified quality]", "Relative water absorption [% by mass/day]": 0.04}
{"Molecule": "O=P(O)(O)CN(CCN(CP(=O)(O)O)CP(=O)(O)O)CCN(CP(=O)(O)O)CP(=O)(O)O [amorphous powder from spray drying of a DTPMP acid purified ] [reference compound]", "Relative water absorption [% by mass/day]": 0.29}
{"Molecule": "O=P(O)(O)CN(CCN(CP(=O)(O)O)CP(=O)(O)O)CCN(CP(=O)(O)O)CP(=O)(O)O [amorphous powder from spray drying of an unpurified DTPMP sy] [reference compound]", "Relative water absorption [% by mass/day]": 0.40}
{"Molecule": "O=P(O)(O)CN(CCN(CP(=O)(O)O)CP(=O)(O)O)CCN(CP(=O)(O)O)CP(=O)(O)O [Crystal form α, purified quality]", "Relative water absorption [% by mass/day]": 0.03}

* * *

- Experiment notes: Drying behaviour of crystallisates in dependence on residual moisture and product purity (tempering in sealed vials, visual points classification)
- Type: physicochemical
- Parameters: key: 5 points=sample unchanged; 4 points=sample compacted/started to dissolve; 3 points=sample visibly started to dissolve; 2 points=sample cloudy highly viscous solution; 1 point=sample dissolved to clear solution
- Experimental setup: Temperature 50 °C, test duration 24 h, sealed vial, shaken
Here, each record is paired with measured Visual classification at the end of the tempering step (points system) data.
Recorded endpoint: Visual classification at the end of the tempering step (points system)

{"Molecule": "O=P(O)(O)CN(CCN(CP(=O)(O)O)CP(=O)(O)O)CCN(CP(=O)(O)O)CP(=O)(O)O [washed quality 11 [% by mass] residual moisture]", "Readout number": 5}
{"Molecule": "O=P(O)(O)CN(CCN(CP(=O)(O)O)CP(=O)(O)O)CCN(CP(=O)(O)O)CP(=O)(O)O [unwashed quality 24 [% by mass] residual moisture]", "Readout number": 4}
{"Molecule": "O=P(O)(O)CN(CCN(CP(=O)(O)O)CP(=O)(O)O)CCN(CP(=O)(O)O)CP(=O)(O)O [unwashed quality 31 [% by mass] residual moisture]", "Readout number": 5}
{"Molecule": "O=P(O)(O)CN(CCN(CP(=O)(O)O)CP(=O)(O)O)CCN(CP(=O)(O)O)CP(=O)(O)O [unwashed quality 40 [% by mass] residual moisture]", "Readout number": 5}
{"Molecule": "O=P(O)(O)CN(CCN(CP(=O)(O)O)CP(=O)(O)O)CCN(CP(=O)(O)O)CP(=O)(O)O [unwashed quality 47 [% by mass] residual moisture]", "Readout number": 5}

All values here come from patent US10590153B2.
